Just for reference, paper PMC6533264 is where these values come from.

biological target: T1, extracellular domain of human IL-4Rα (residues 26–232), C-terminal 6× His (human, UniProt P24394); test: BLI; OctetRED96; Ab (1 μg/mL) captured on anti-human IgG Fc capture (AHC) biosensors at low density (0.6 to 0.8 nm), soluble monomeric IL-4Rα as analyte; 25 °C, PBS pH 7.4, 0.02% Tween 20; association 300 s, dissociation 600-900 s; 1:1 binding model; conditions: both partners purified
T1 construct: human interleukin-4 receptor alpha subunit, extracellular domain, residues 26-232; Subcloned into the pSecTag2A vector; N-glycosylated (~45 kDa, ~26 kDa after PNGase F); also called wild-type IL-4Rα; soluble IL-4Rα; source: HEK293F, transiently transfected, purified (Ni-NTA); not shown: His6, C-terminal, kept
T1 sequence (P24394 26-232): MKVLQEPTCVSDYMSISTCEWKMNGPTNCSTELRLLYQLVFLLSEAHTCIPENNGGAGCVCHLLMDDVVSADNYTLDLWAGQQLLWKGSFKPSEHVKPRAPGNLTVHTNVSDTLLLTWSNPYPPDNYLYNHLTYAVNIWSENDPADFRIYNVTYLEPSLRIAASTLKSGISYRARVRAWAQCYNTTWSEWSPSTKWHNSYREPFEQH
quantityKind: kon (M⁻¹ s⁻¹)
Could you give me the number in M⁻¹ s⁻¹? Just the number is fine.

Sample 4R34.19, human IgG1 (antibody, V domains shown) VH: EVQLLESGGGLVQPGGSLRLSCAASGFTFSNYAMSWVRQAPGKGLEWVSAITSSGGNIYYADSVKGRFTISRDNSKNTLYLQMNSLRAEDTAVYYCARVHRAFDYWGQGTLVTVSS VL: QSVLTQPPSASGTPGQRVTISCSGSSSNIGSNTFNWYQQLPGTAPKLLIYADSHRPSGVPDRFSGSKSGTSASLAISGLRSEDEADYYCGYWDYSLSGYVLGGGTKLTVL — what was its kon?
4.58e+06

Another binder to look at: 4R34.1.21, human IgG1 (antibody, V domains shown) VH: EVQLLESGGGLVQPGGSLRLSCAASGFTFSNYAMSWVRQAPGKGLEWVSAITSSGRSIYYADSVKGRFTISRDNSKNTLYLQMNSLRAEDTAVYYCARVHRAFDYWGQGTLVTVSS VL: QSVLTQPPSASGTPGQRVTISCSGSAALDLSPSFNWYQQLPGTAPKLLIYADSHRPSGVPDRFSGSKSGTSASLAISGLRSEDEADYYCGTWDYSLSGYVLGGGTKLTVL
4.63e+06

Try this binder next: 4R34.1.17, human IgG1 (antibody, V domains shown) VH: EVQLLESGGGLVQPGGSLRLSCAASGFTFSNYAMSWVRQAPGKGLEWVSAITSSGRSIYYADSVKGRFTISRDNSKNTLYLQMNSLRAEDTAVYYCARVHRAFDYWGQGTLVTVSS VL: QSVLTQPPSASGTPGQRVTISCSGSTKQMHNYQFNWYQQLPGTAPKLLIYADSHRPSGVPDRFSGSKSGTSASLAISGLRSEDEADYYCGTWDYSLSGYVLGGGTKLTVL
4.92e+06

Check 4R34.1, human IgG1 (antibody, V domains shown) VH: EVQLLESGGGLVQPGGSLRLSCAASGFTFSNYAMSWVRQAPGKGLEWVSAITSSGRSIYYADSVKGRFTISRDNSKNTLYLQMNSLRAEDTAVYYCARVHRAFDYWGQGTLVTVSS VL: QSVLTQPPSASGTPGQRVTISCSGSSSNIGSNTFNWYQQLPGTAPKLLIYADSHRPSGVPDRFSGSKSGTSASLAISGLRSEDEADYYCGTWDYSLSGYVLGGGTKLTVL too.
4.28e+06

4R34.1.13, human IgG1 (antibody, V domains shown) VH: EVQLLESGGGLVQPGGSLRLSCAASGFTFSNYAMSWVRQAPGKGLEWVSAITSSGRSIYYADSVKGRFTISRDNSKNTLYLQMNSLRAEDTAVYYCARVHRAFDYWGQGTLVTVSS VL: QSVLTQPPSASGTPGQRVTISCSGSAQFGSRDNFNWYQQLPGTAPKLLIYADSHRPSGVPDRFSGSKSGTSASLAISGLRSEDEADYYCGTWDYSLRGYVLGGGTKLTVL ?
5.12e+06
